target: GST-tagged recombinant human RIP2 (Homo sapiens (Human), UniProt O43353); assay: RIP2 Kinase Assay (ADP-Glo); settings: in vitro kinase activity, ATP 25 μM
Sequence (O43353 whole entry): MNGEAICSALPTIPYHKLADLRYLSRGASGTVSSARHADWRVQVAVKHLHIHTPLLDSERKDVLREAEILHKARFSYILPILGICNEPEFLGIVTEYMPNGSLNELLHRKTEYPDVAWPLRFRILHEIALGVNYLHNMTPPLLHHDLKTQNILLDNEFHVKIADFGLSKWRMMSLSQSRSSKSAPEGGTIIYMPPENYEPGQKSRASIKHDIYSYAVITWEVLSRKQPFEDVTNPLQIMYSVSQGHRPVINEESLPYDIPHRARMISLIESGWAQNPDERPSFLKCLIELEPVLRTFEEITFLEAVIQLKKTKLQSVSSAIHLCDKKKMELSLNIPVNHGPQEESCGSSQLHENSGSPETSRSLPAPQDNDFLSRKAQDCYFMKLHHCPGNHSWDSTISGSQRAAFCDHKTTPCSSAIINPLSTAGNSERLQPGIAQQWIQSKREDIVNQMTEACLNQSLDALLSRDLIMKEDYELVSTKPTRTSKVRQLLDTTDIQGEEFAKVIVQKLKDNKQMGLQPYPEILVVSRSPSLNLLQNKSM
PARAMETER: IC50

Complete the entry with IC50 for Cc1c(F)cccc1-c1ccc2nc(NCCN)c(C(=O)[C@@H]3C[C@@H]3F)n2c1 [Example 93]
> 1000 nM

Check the records and state IC50 for Nc1nc2ccc(-c3c(Cl)c(F)cc4[nH]ncc34)cn2c1C(=O)[C@@H]1C[C@@H]1F [Example 64]
1 to 100 nM

Fill in reported IC50 for this entry: Nc1nc2ccc(-c3cccs3)cn2c1C(=O)[C@@H]1C[C@@H]1F [Example 8]
101 to 500 nM

Tell us which IC50 value is on record for Cc1c(F)cccc1-c1ccc2nc(N)c(C(=O)c3ncccn3)n2c1 [Example 76]
1 to 100 nM

Provide only the value of recorded IC50 for CC(=O)c1c(N(C(C)=O)C(C)=O)nc2ccc(-c3cccc(F)c3C)cn12 [Example 37]
> 1000 nM

Tell me IC50 reported for CNc1nc2ccc(-c3cccc(F)c3C)cn2c1C(=O)[C@@H]1C[C@@H]1F [Example 54]
> 1000 nM

Specify measured IC50 for Cc1c(-c2ccc3nc(N)c(C(=O)[C@@H]4C[C@@H]4F)n3c2)cnc2c1ccn2C [Example 106] .
101 to 500 nM

Query IC50 for Nc1nc2ccc(-c3cccc(F)c3CO)cn2c1C(=O)[C@@H]1C[C@@H]1F [Example 127]
> 1000 nM

----------
target: GST-tagged recombinant human RIP2 (Homo sapiens (Human), UniProt O43353); test: RIP2 Kinase Assay (ADP-Glo); details: in vitro kinase activity, ATP 25 μM
PARAMETER: IC50

Please respond with reported IC50 (system GST-tagged recombinant human RIP2 (Homo sapiens (Human), UniProt O43353)) for Nc1nc2ccc(-c3ccc4[nH]ccc4c3)cn2c1C(=O)[C@H]1C[C@H]1F .
1 to 100 nM

Look up and report IC50, with GST-tagged recombinant human RIP2 (Homo sapiens (Human), UniProt O43353) as system, for Nc1nc2ccc(-c3ccc4[nH]ccc4c3)cn2c1C(=O)[C@@H]1C[C@@H]1F
1 to 100 nM

Write IC50 of Cc1c(-c2cc(F)c3nc(N)c(C(=O)[C@@H]4C[C@@H]4F)n3c2)cnc2[nH]ccc12 ; system used: GST-tagged recombinant human RIP2 (Homo sapiens (Human), UniProt O43353)
1 to 100 nM

Determine reported IC50 for Nc1nc2ccc(-c3ccc4[nH]ccc4c3Cl)cn2c1C(=O)[C@@H]1C[C@@H]1F ; test system: GST-tagged recombinant human RIP2 (Homo sapiens (Human), UniProt O43353).
1 to 100 nM

Lab note: GST-tagged recombinant human RIP2 (Homo sapiens (Human), UniProt O43353) assay, enter IC50 for Nc1nc2ccc(-c3ccccc3CCF)cn2c1C(=O)[C@@H]1C[C@H]1F here
> 1000 nM

Provide IC50, recorded with GST-tagged recombinant human RIP2 (Homo sapiens (Human), UniProt O43353), of Cc1c(F)cccc1-c1ccc2nc(N(C)C)c(C(=O)[C@H]3C[C@@H]3F)n2c1
> 1000 nM

Give reported IC50 for Cc1ccc(C(F)(F)F)cc1-c1ccc2nc(N)c(C(=O)[C@@H]3C[C@@H]3F)n2c1 (GST-tagged recombinant human RIP2 (Homo sapiens (Human), UniProt O43353))
101 to 500 nM

State the measured IC50 (GST-tagged recombinant human RIP2 (Homo sapiens (Human), UniProt O43353)) of Cc1ccc(F)cc1-c1ccc2nc(N)c(C(=O)[C@@H]3C[C@@H]3F)n2c1
1 to 100 nM

----------
biological target: GST-tagged recombinant human RIP2 (Homo sapiens (Human), UniProt O43353); assay: RIP2 Kinase Assay (ADP-Glo); conditions: in vitro kinase activity, ATP 25 μM
pIC50: −log10 of the molar value.
PARAMETER: pIC50

Read the entry Nc1nn2ccc(-c3cccc4[nH]ccc34)cc2c1C(=O)C1CC1 and write its reported pIC50.
7.00 to 9.00

Provide only the value of recorded pIC50 for Cc1c(F)cccc1-c1ccc2nc(N)c(C(=O)C3CCC3)n2c1
6.30 to 7.00

Provide only the value of recorded pIC50 for Cc1c(F)cccc1-c1ccc2nc(N)c(C(=O)NC3CC3)n2c1
6.30 to 7.00

Look up and state reported pIC50 for CC(C)(C)OC(=O)n1ccc(-c2ccc3nc(N)c(C(=O)[C@@H]4C[C@@H]4F)n3c2)c1
< 6.00

Name the recorded pIC50 of the compound listed here: Nc1nc2ccc(-c3cccc(F)c3CCF)cn2c1C(=O)[C@@H]1C[C@@H]1F
< 6.00

----------
Give measured pIC50 for each item. Keep answers brief.
target: GST-tagged recombinant human RIP2 (Homo sapiens (Human), UniProt O43353); assay: RIP2 Kinase Assay (ADP-Glo); assay type: biochemical; settings: in vitro kinase activity, ATP 25 μM
pIC50: −log10 of the molar value.

Enter recorded pIC50 with GST-tagged recombinant human RIP2 (Homo sapiens (Human), UniProt O43353) for Nc1nc2ccc(-c3cnc4[nH]ccc4c3)cn2c1C(=O)C1CCNC1 (centres unmarked) here.
6.30 to 7.00

Look up GST-tagged recombinant human RIP2 (Homo sapiens (Human), UniProt O43353) data: pIC50 of Cc1ccsc1-c1ccc2nc(N)c(C(=O)[C@@H]3C[C@@H]3F)n2c1 , then report it.
6.30 to 7.00

Give measured pIC50 for Cc1c(-c2ccc3nc(N)c(C(=O)[C@@H]4C[C@@H]4F)n3c2)ccc2[nH]ccc12 (GST-tagged recombinant human RIP2 (Homo sapiens (Human), UniProt O43353)).
7.00 to 9.00

// fetch pIC50 for Nc1nc2ccc(-c3cnc4[nH]ccc4c3)cn2c1C(=O)C1CNC1 ; system: GST-tagged recombinant human RIP2 (Homo sapiens (Human), UniProt O43353)
7.00 to 9.00

State the measured pIC50 (GST-tagged recombinant human RIP2 (Homo sapiens (Human), UniProt O43353)) of CC(C)(C)OC(=O)NCc1ccccc1-c1ccc2nc(N)c(C(=O)[C@@H]3C[C@@H]3F)n2c1
< 6.00

Find pIC50 for CCCCC(=O)c1c(N)nc2ccc(-c3cccc(F)c3C)cn12 on GST-tagged recombinant human RIP2 (Homo sapiens (Human), UniProt O43353) and write it down.
6.00 to 6.30

Recall the reported pIC50 of Nc1nc2ccc(-c3ccc4[nH]ccc4c3)cn2c1C(=O)[C@H]1C[C@@H]1F when tested on GST-tagged recombinant human RIP2 (Homo sapiens (Human), UniProt O43353).
7.00 to 9.00

State, for GST-tagged recombinant human RIP2 (Homo sapiens (Human), UniProt O43353), measured pIC50 of the compound listed here: Nc1nc2ccc(-c3cccc(F)c3OCCF)cn2c1C(=O)[C@@H]1C[C@@H]1F
6.30 to 7.00

----------
Kindly supply the reported pIC50 values for the records listed here.
biological target: GST-tagged recombinant human RIP2 (Homo sapiens (Human)); assay: RIP2 Kinase Assay (ADP-Glo); conditions: in vitro kinase activity, ATP 25 μM
pIC50: −log10 of the molar value.

Supply pIC50 measured with GST-tagged recombinant human RIP2 (Homo sapiens (Human)) for Nc1nc2ccc(-c3cnc4[nH]ccc4c3F)cn2c1C(=O)[C@@H]1C[C@@H]1F .
7.00 to 9.00

Under GST-tagged recombinant human RIP2 (Homo sapiens (Human)): report pIC50 of Cc1c(F)cccc1-c1ccc2nc(N)c(C(=O)C3CC3)n2c1 .
7.00 to 9.00

GET pIC50 | system: GST-tagged recombinant human RIP2 (Homo sapiens (Human)) | item: Nc1nc2c(F)cc(-c3ccc4[nH]ccc4c3)cn2c1C(=O)[C@@H]1C[C@@H]1F
6.30 to 7.00

Consider the molecule Nc1nc2ccc(-c3cnc4[nH]ccc4c3)cn2c1C(=O)c1ccncn1 tested on GST-tagged recombinant human RIP2 (Homo sapiens (Human)); state its pIC50.
7.00 to 9.00

Retrieve pIC50 on GST-tagged recombinant human RIP2 (Homo sapiens (Human)); query Cc1c(F)cccc1-c1ccc2nc(N)c(C(=O)N(C)C3CC3)n2c1
< 6.00

Lab note: record pIC50 of Cc1c(F)c(N(C)C)c2[nH]ncc2c1-c1ccc2nc(N)c(C(=O)[C@@H]3C[C@@H]3F)n2c1 tested on GST-tagged recombinant human RIP2 (Homo sapiens (Human)).
6.30 to 7.00

Report pIC50 on GST-tagged recombinant human RIP2 (Homo sapiens (Human)) for this entry: Cc1cc(-c2ccc3nc(N)c(C(=O)[C@@H]4C[C@@H]4F)n3c2)c(F)cc1N
7.00 to 9.00

Give pIC50 for this entry on GST-tagged recombinant human RIP2 (Homo sapiens (Human)): Cc1c(F)cccc1-c1ccc2nc(N)c(C(=O)C3CNC3)n2c1
7.00 to 9.00
